Reported values of Max MFI for individual entries
- TESTED_ON: T1, human GPC3 on CHO-K1-human GPC3 cells (clone CHOK1-hGPC3.2B5) (human, UniProt P51654 25-554)
- T1 construct: whole, on cells; Stably transfected CHO-K1 clone 2B5
- TEST_PROTOCOL: FACS on CHOK1-hGPC3.2B5 cells;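 further: flow cytometry binding of chimeric antibodies to the cells, read out as mean fluorescence intensity, with the half-maximal concentration derived by curve fitting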
The response must be a number in MFI with no trailing unit.

BINDER: F1.153.1 human-murine chimeric antibody (antibody, human IgG1, kappa, V domains shown) VH: QIQLVQSGPELKKPGETVKISCKASGYTFTTAGMQWVQKMPGKGFKWIGWINTHSGEPQYAEDFKGRFAFSLETSASTAYLQISNLKNEDTATYFCARSFYYHGSSFFYFDYWGQGTTLTVSS VL: DIVMTQSQKFMSTTVGDRVSITCKASQNVGTAVAWYQQKPGQSPKLLIYSASNRYTGVPDRFTGSGSGADFTLTISNMQSEDLADYFCQQYSRYPLTFGAGTKLELKR
Max MFI / MFI: 3080

Now look at this one.
// query Max MFI value for entry F1.41.17 human-murine chimeric antibody (antibody, human IgG1, kappa, V domains shown) VH: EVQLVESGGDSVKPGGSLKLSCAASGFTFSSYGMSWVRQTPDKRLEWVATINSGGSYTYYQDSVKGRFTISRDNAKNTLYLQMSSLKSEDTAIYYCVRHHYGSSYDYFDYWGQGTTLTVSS VL: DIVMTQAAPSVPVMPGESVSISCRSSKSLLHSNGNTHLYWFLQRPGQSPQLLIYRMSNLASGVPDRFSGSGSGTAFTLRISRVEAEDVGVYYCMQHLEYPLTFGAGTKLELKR
9930
